system: Staphylococcus aureus; experiment: Antibacterial activity against laboratory-derived Staphylococcus aureus isolate 29213-3 harboring ribosomal protein L3 deltaPhe127-His146 mutant and cfr-containing p42262 by broth microdilution method; type: functional

{"compound": "Cn1nnc(-c2ccc(-c3ccc(N4C[C@H](CO)OC4=O)cc3F)cn2)n1 [TEDIZOLID]", "comparison_symbol": "=", "MIC, µg/mL": 2}
{"compound": "CC(=O)NC[C@H]1CN(c2ccc(N3CCOCC3)c(F)c2)C(=O)O1 [LINEZOLID]", "comparison_symbol": "=", "MIC, µg/mL": 64}
{"compound": "CC(=O)NC[C@H]1CN(c2ccc(-c3ccc(CNCc4cnn[nH]4)cc3)c(F)c2)C(=O)O1 [RADEZOLID]", "comparison_symbol": "=", "MIC, µg/mL": 8}
{"compound": "C=C[C@]1(C)C[C@@H](OC(=O)CSCCN(CC)CC)[C@]2(C)[C@H](C)CC[C@]3(CCC(=O)[C@H]32)[C@@H](C)[C@@H]1O [TIAMULIN]", "comparison_symbol": ">", "MIC, µg/mL": 64}
{"compound": "O=C(N[C@H](CO)[C@H](O)c1ccc([N+](=O)[O-])cc1)C(Cl)Cl [CHLORAMPHENICOL]", "comparison_symbol": ">", "MIC, µg/mL": 64}
